Molecular target: Serotransferrin (Homo sapiens) (UniProt P02787)
Sequence (P02787 whole entry): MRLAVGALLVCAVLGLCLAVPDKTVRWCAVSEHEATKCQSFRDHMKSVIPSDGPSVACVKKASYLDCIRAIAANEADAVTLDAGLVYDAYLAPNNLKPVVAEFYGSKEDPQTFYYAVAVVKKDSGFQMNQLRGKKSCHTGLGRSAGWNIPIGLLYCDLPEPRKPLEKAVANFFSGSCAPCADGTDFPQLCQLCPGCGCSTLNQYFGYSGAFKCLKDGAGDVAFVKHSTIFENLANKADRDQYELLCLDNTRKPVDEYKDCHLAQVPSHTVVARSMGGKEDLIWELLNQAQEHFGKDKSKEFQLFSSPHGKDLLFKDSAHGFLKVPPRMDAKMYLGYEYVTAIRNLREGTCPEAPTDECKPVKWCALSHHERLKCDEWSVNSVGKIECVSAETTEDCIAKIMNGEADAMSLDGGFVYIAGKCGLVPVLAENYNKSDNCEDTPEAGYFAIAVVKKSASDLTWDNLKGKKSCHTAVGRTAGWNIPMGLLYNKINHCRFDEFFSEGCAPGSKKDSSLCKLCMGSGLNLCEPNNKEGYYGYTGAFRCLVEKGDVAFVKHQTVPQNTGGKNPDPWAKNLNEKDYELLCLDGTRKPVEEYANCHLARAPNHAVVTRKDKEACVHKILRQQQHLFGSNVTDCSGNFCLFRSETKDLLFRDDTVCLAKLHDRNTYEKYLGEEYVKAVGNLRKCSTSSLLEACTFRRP
Assay: Induction of iron removal from 59Fe]transferrin assessed as iron release after 3 hrs relative to control
Design: concentration or dose not given beside the values
Use 2% as the dividing line for Activity, with the line itself on the Condition met side and lower values as Condition not met.

**Query** Hi team, for CCNC(=S)N/N=C(\c1ccccc1)c1ccccn1 , is the recorded Activity at or above 2%?
**Result** Condition met

**Query** Hi team, for CNC(=S)N/N=C(\C)c1ccccn1 , is the recorded Activity at or above 2%?
**Result** Condition not met

**Query** Hi team, for C/C(=N\NC(=S)Nc1ccccc1)c1ccccn1 , is the recorded Activity at or above 2%?
**Result** Condition not met

**Query** Hi team, for CC(=O)N(O)CCCCCNC(=O)CCC(=O)N(O)CCCCCNC(=O)CCC(=O)N(O)CCCCCN [DEFEROXAMINE] , is the recorded Activity at or above 2%?
**Result** Condition met

**Query** Hi team, for CN(C)C(=S)NN=C(c1ccccn1)c1ccccn1 , is the recorded Activity at or above 2%?
**Result** Condition met

**Query** Hi team, for C/C(=N\NC(N)=S)c1ccccn1 , is the recorded Activity at or above 2%?
**Result** Condition not met

**Query** Hi team, for C/C(=N\NC(=S)N(C)C)c1ccccn1 , is the recorded Activity at or above 2%?
**Result** Condition met

**Query** Hi team, for C=CCNC(=S)N/N=C(\C)c1ccccn1 , is the recorded Activity at or above 2%?
**Result** Condition not met

**Query** Hi team, for NC(=S)NN=C(c1ccccn1)c1ccccn1 , is the recorded Activity at or above 2%?
**Result** Condition not met

**Query** Hi team, for CCNC(=S)N/N=C(\C)c1ccccn1 , is the recorded Activity at or above 2%?
**Result** Condition met

**Query** Hi team, for Cc1c(O)c(=O)ccn1C , is the recorded Activity at or above 2%?
**Result** Condition met

====

System: SK-N-MC
Assay: cells
Details: Homo sapiens, 72 h
Description: Antiproliferative activity against human SK-N-MC cells after 72 hrs by MTT assay
What pIC50 was measured for each of the following?
# pIC50: negative log10 of molar concentration; output just the value

**Query** Give its pIC50 value. Item: C/C(=N\NC(=S)Nc1ccccc1)c1ccccn1
**Result** 9.00

**Query** Give its pIC50 value. Item: O=C(N/N=C/c1c(O)ccc2ccccc12)c1ccncc1
**Result** 6.30

**Query** Give its pIC50 value. Item: CCNC(=S)N/N=C(\C)c1ccccn1
**Result** 8.70

**Query** Give its pIC50 value. Item: C/C(=N\NC(N)=S)c1ccccn1
**Result** 5.45

**Query** Give its pIC50 value. Item: C/C(=N\NC(=S)N(C)C)c1ccccn1
**Result** 9.00

**Query** Give its pIC50 value. Item: CC(=O)N(O)CCCCCNC(=O)CCC(=O)N(O)CCCCCNC(=O)CCC(=O)N(O)CCCCCN
**Result** 5.13

**Query** Give its pIC50 value. Item: CCNC(=S)N/N=C(\c1ccccc1)c1ccccn1
**Result** 8.52

**Query** Give its pIC50 value. Item: C=CCNC(=S)N/N=C(\C)c1ccccn1
**Result** 9.00

**Query** Give its pIC50 value. Item: CNC(=S)N/N=C(\C)c1ccccn1
**Result** 7.96
